Every entry's value here was drawn from PubChem BioAssay (NCI).

Experiment: NCI Yeast Anticancer Drug Screen. Data for the bub3 strain (AID 167)
Conditions: S. cerevisiae bub3 mutant strain, at 5.0 µM (retest, dose inferred, filed as 0.5), hits give high values
About 79,000 compounds went through this panel and 15% of them were active in at least one assay; those are over-represented in the sample as a whole.
PROPERTY_LABEL: growth inhibition (%)
Answer with a number only, understood to be in %.

Recorded growth inhibition, per entry:
* CCCCCCCCCCCCCCCCCCNCCCCCCCCCCCCCCCC | -5
* Cc1cccc2ccc3cc(CC(=O)O)c4cccc(C)c4c3c12 | 32
* CC(=O)NC1=C(Cl)C(=O)c2ccccc2C1=O | 96
* Cc1nc(Nc2ccc(Cl)cc2)sc1C(=O)NNc1ccc([N+](=O)[O-])cc1[N+](=O)[O-] | 10
* CCc1ccccc1NC(=O)C(=O)C(C#N)c1c(Cl)cccc1Cl (stereo unspecified) | 1

The recorded growth inhibition for Cn1c(-c2ccccc2)c(CCNC(=O)C2CCC2)c2ccccc21 is 11

====

Experiment: NCI Yeast Anticancer Drug Screen. Data for the rad50 strain (AID 155);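 further: 0% = growth of vehicle-only cultures of the same strain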
Conditions: S. cerevisiae rad50 strain growth inhibition; at 5.0 µM (retest, dose inferred, filed as 0.5); hits give high values
The panel holds about 79,000 compounds, 15% with a hit somewhere; the sample as a whole holds those more often.
molecules and their reported growth inhibition
Write it as a number; the unit % goes unstated.

Field: example entries. Status: answers known.
* O=C1c2ccccc2C(=O)c2c(Nc3cc4c5c(ccc6c7ccc8c9c(cc(Nc%10cccc%11c%10C(=O)c%10ccccc%10C%11=O)c(c3c56)c97)-c3ccccc3C8=O)C(=O)c3ccccc3-4)cccc21 | 1
* O=C(CCn1[nH]c(=O)c(Cl)c(Cl)c1=O)NNc1ccc([N+](=O)[O-])cc1[N+](=O)[O-] | 4

The recorded growth inhibition for entry COc1cc(C(=O)OCC(C)C)ccc1O equals 3

Reported growth inhibition ( O=C(O)c1ccc([N+](=O)[O-])o1 ) = 6

Measured growth inhibition of CN1CCN(CCCN)CC1 : -8

// field: growth inhibition; key: C[C@]12CC[C@H](O)CC1=CC[C@@H]1C2CC[C@]2(C)NC(=O)CCC12 (some centres not stated) ; value = -4

Looking up Cc1c(O)c(Br)c(C)c(O)c1Br (tested in a mixture with another compound) , I found its growth inhibition recorded as 0

Value of growth inhibition reported for the molecule CN(C)c1ccc(C2(Cl)c3ccccc3N(Cc3ccccc3)c3ccccc32)cc1 is 99

Entry Cc1cc(Cc2ccc(Cl)cc2)ccc1O ; growth inhibition = 0

====

Assay: NCI Yeast Anticancer Drug Screen. Data for the rad50 strain (AID 155);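 further: 0% = growth of vehicle-only cultures of the same strain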
Conditions: S. cerevisiae rad50 strain growth inhibition; at 5.0 µM (retest, dose inferred, filed as 0.5); hits give high values
Compounds without any hit were thinned out: in the full panel of roughly 79,000, 15% have a hit.
Cut-off 10% on growth inhibition, inclusive. At or above means Criterion met; below means Criterion not met.

Before answering, review these 4 worked examples.
* COc1ccccc1NC(=O)C1=C(C)NC(C)=C(C(=O)Nc2ccccc2OC)C1c1ccccc1[N+](=O)[O-] | Criterion met
* C=CC(=O)N1C/C(=C\c2ccc([N+](=O)[O-])cc2)C(=O)/C(=C/c2ccc([N+](=O)[O-])cc2)C1 | Criterion met
* CCCCCCCCCC1OCC(O)CO1 (stereo not given) (tested in a mixture with another compound) | Criterion not met
* O=C1C(Br)=C(C2CCCCC2)C(=O)c2ccccc21 | Criterion met

Entry O=[N+]([O-])C1=Cc2ccccc2S(=O)(=O)CC1 : is its growth inhibition no less than 10%?
Criterion not met

====

Assay: NCI Yeast Anticancer Drug Screen. Data for the rad50 strain (AID 155);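 further: 0% = growth of vehicle-only cultures of the same strain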
Settings: S. cerevisiae rad50 strain growth inhibition; at 50.0 µM
Compounds without any hit were thinned out: in the full panel of roughly 79,000, 15% have a hit. The source made the active and inactive calls. Cut-off read from the data, not from the text of the source: active = growth inhibition above about 70%; inactive = the rest.
Entry note: the call must match one of 1.0 (active), 0.0 (inactive)

Field: example entries. Status: answers known.
- O=C(C(=S)c1ccccc1)N(Cc1ccccc1)Cc1ccccc1: 1.0
- C/C(CC(O)(C(F)(F)F)C(F)(F)F)=N/Nc1ccc([N+](=O)[O-])cc1[N+](=O)[O-]: 1.0
- O=C(O)COc1cc(Br)cc(Br)c1-c1ccccc1: 0.0
- O=C1C(=O)N(c2ccc(Cl)c(Cl)c2)C(=O)C(=O)C1c1nc2ccccc2o1: 1.0
- O=C(COc1ccccc1)Oc1c(Cl)c(Cl)c(Cl)c(Cl)c1Cl: 1.0

Please let me know the test result on file for CC(C)(C)c1ccc(C(=O)C[n+]2ccc(Cl)c3ccc(Cl)cc32)cc1 .
1.0

====

Entries and their growth inhibition values follow.
Test: NCI Yeast Anticancer Drug Screen. Data for the mlh1 rad18 strain (AID 175)
Settings: S. cerevisiae mlh1 rad18 strain growth inhibition; at 50.0 µM; hits give high values
About 79,000 compounds went through this panel and 15% of them were active in at least one assay; those are over-represented in the sample as a whole. The source made the active and inactive calls. Cut-off read from the data, not from the text of the source: active = growth inhibition above about 70%; inactive = the rest.

Illustrative cases are given below, each with its answer.
- CSC(=Nc1ccccc1)NC(=O)Nc1ccc(Cl)cc1: 3.15% (inactive)
- FC(F)(F)c1ccc(Nc2ccc(C(F)(F)F)cc2)cc1: 99.8% (active)
- CC(=O)Nc1cc(F)c2c(c1)Cc1ccccc1-2: -14.2% (inactive)
- CN(C)CC(CN(C)C)C(=O)c1ccc(Oc2ccc(Cl)cc2)cc1: 6.95% (inactive)
- C=C1C(O)C2(O)OCC34C(CC5C(C)=CC(=O)C(O)C5(C)C23)OC(=O)C(OC(=O)C/C=C/CCCCCCCC)C14 (stereo unspecified): 90.7% (active)

// moving on: another record for growth inhibition
Per the record, O=S(=O)(Nc1ccc2c3c(cccc13)C=C2)c1ccccc1 has growth inhibition of 92.3% (active)

====

Assay: NCI Yeast Anticancer Drug Screen. Data for the bub3 strain (AID 167)
Conditions: S. cerevisiae bub3 mutant strain, at 50.0 µM (retest, dose inferred, filed as 5.0), hits give high values
The panel holds about 79,000 compounds, 15% with a hit somewhere; the sample as a whole holds those more often.
Form field: growth inhibition (one value per entry).
Please reply with the bare figure in % and do not write the unit itself.

Sample records with growth inhibition:
* O=C1C=C(Br)C(=O)C12CCc1ccccc12 (configuration not stated) | 99
* CCOC(=O)N1CCN(CCCCCCOc2ccc(C(C)(C)C)cc2)CC1 | 76
* CCCCCCCCCCCCOP(=O)(N1CC1(C)C)N1CC1(C)C (configuration not stated) | 97
* CC(C)(C)c1ccc(Br)c(CCC(=O)NO)c1 | 96
* COc1ccc(-c2cc(-c3ccco3)c(C#N)c(=S)n2C2OC(CO)C(O)C(O)C2O)cc1 (configuration not stated) | 7

For record COc1ccccc1NC(c1ccccc1)c1ccc2cccnc2c1O (configuration not stated) the listed growth inhibition is 18

Memo: CCOc1ccccc1NC1=C(Cl)C(=O)c2ccccc2C1=O , reported growth inhibition: 97

// sample CCN(C(=O)C(F)(F)F)c1ccc2c(c1)C(=O)c1ccccc1-2 , its growth inhibition was 70

Measured growth inhibition, Brc1c2nc3ccccc3nc2n2ccc3ccccc3c12 : 83

// field: growth inhibition; key: CCc1cc2c(c3c1C(=O)CC3)C(C)(C)CCC2 ; value = 97

growth inhibition measured on CCC1(CC)COC(C)(C(=O)O)OC1 = -71

// sample CC(=O)Oc1cccc2c1C(=O)C(Br)(Br)CCC2 , its growth inhibition was 99

====

growth inhibition for assorted molecules
Assay: NCI Yeast Anticancer Drug Screen. Data for the bub3 strain (AID 167)
Conditions: S. cerevisiae bub3 mutant strain, at 5.0 µM (retest, dose inferred, filed as 0.5), hits give high values
Description: Growth inhibition of yeast strains with defined genetic alterations is measured as a screen for potential anti-cancer activity. Selected strains with alterations in DNA damage repair or cell cycle control were exposed to compounds and growth inhibition was measured relative to vehicle treated controls. The strain used in this assay is bub3
Compounds without any hit were thinned out: in the full panel of roughly 79,000, 15% have a hit.
Could you give me the number in %? Just the number is fine.

- COc1ccc(NCCN(C)C)c2c(=O)c3ccccc3sc12: -7

// CS(=O)(=O)c1cc(=O)c2ccccc2s1 : growth inhibition value = -3

Form field growth inhibition, entry CCCCN1C(=O)C[C@H]2[C@@H]3CCc4cc(OCCN5CCCC5)ccc4[C@H]3CC[C@]2(C)C1=O : 57

Field growth inhibition (entry Cc1c(N2CCCC2)cc2c(c1NC(=O)c1ccccc1Cl)C(C)(C)CC2(C)C ) reads 10

Consider O=[N+]([O-])c1ccccc1SCc1ccccc1 . Its measured growth inhibition is -1

The molecule identified as COc1ccc(NC(=O)/C(=C/c2ccccc2)C(C)=O)cc1 registered its growth inhibition at 65

Reported growth inhibition of CC(=O)Nc1[c-]cccc1.CC(=O)Nc1[c-]cccc1.CC(=O)O.CC(=O)O.[Pd].[Pd] : -4

// recorded growth inhibition for Brc1ccc(CCNCCN2CCCCC2)cc1 : 15

// sample CCC(C)NCCNc1cc(OC)cc2cccnc12 (configuration not stated) , its growth inhibition was -1

growth inhibition measured on O=C1/C(=C/c2ccc(F)cc2)CNC/C1=C\c1ccc(F)cc1 = -11

For reference, reported growth inhibition for Clc1ccccc1/C=C/c1ccnc2ccccc12 stands at -3

Form: molecule = NC(=S)C(=Nc1ccccc1F)Nc1ccccc1F ; growth inhibition = -1
